Kindly state uPA-PAI-1 complex ELISA IC50 for each of the entries shown.
- measuredOn: endogenous human PAI-1 (human, UniProt P05121 24-402)
- Sequence (P05121 24-402 limits assumed, form in doubt): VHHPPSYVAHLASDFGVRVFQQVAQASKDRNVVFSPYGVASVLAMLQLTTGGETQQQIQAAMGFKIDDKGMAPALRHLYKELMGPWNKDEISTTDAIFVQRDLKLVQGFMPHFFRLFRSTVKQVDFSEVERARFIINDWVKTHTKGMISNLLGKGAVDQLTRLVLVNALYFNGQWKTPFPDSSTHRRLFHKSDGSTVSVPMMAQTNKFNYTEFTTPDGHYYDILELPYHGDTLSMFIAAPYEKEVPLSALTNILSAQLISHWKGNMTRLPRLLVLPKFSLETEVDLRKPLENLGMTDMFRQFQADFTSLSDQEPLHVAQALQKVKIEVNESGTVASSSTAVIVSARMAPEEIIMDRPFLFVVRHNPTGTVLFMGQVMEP
- runDescription: cell-based or functional assay
Write the answer as a number in nM, unit excluded.

[Q] For A44-hv11 (antibody, V domains shown, constant regions only as pictures; also called A44V11; A44v11) VH: QMTLKESGPTLVKPTQTLSLTCSVSGDSMTNGYWNWIRQFPGKALEYMGYITYSGSTYYNPSLKGRITITRDTSKNQYYLTLSSVTTVDTATYYCARWHYGSPYYFDYWGQGTTLTVSS VL: DIKMTQSPSSLSASVGDRVTITCKASQDINSYLSWLQQKPGKSPKTLIYRAQRSVEGVPSRFSGSGSGQDYSLTISSLQPEDLGIYYCLQYDEFPPTFGGGTKLEIK , what is its reported uPA-PAI-1 complex ELISA IC50?
[A] 0.0157

[Q] For A44-hv12 (antibody, V domains shown) VH: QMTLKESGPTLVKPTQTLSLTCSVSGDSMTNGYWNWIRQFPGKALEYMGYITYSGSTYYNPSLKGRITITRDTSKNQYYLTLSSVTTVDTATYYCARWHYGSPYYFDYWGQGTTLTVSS VL: DIKMTQSPSSLSASVGDRVTITCKASQDINSYLSWLQQKPGKSPKTLIYRAQRSVEGVPSRFSGSGSGQDYSLTISSLQPEDLATYYCLQYDEFPPTFGGGTKLEIK , what is its reported uPA-PAI-1 complex ELISA IC50?
[A] 0.00335

[Q] For A44-hv14 (antibody, V domains shown) VH: QMQLQESGPGLVKPSETLSLTCTVSGDSMTNGYWNWIRQPPGKGLEYMGYITYSGSTYYNPSLKSRITISRDTSKNQYSLKLSSVTAADTAVYYCARWHYGSPYYFDYWGQGTLVTVSS VL: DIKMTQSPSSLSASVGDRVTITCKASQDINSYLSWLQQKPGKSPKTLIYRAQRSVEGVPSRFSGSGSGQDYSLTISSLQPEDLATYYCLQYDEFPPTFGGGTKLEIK , what is its reported uPA-PAI-1 complex ELISA IC50?
[A] 0.0586

[Q] For A44-hv13 (antibody, V domains shown) VH: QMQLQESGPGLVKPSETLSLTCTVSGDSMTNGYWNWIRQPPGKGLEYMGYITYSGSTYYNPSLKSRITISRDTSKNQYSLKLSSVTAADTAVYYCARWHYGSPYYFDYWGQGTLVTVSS VL: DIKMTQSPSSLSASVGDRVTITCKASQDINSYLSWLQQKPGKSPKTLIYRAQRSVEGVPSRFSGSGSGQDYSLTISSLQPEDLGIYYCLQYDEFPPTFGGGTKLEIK , what is its reported uPA-PAI-1 complex ELISA IC50?
[A] 0.0311
